# Test system: DU-145
# measurement_description: NCI tumour cell line growth inhibition, 48 h
Counter-ions that a name gives are not always drawn. The source made the active and inactive calls. Rule as the data show it: active = GI50 up to about 1.1 µM and inactive = higher.
result_type: GI50

Use these answered entries as a reference point.
CC1=C(C(=O)OCCc2ccc([N+](=O)[O-])cc2)C(c2ccccc2C(F)(F)F)C(C(=O)OC(C)C)=C(C)N1 (stereo unspecified) :: 9.16 µM (inactive)
CCOC(=O)c1nc2ccc(C(F)(F)F)cc2nc1Oc1cc(OC)cc(OC)c1 :: 87.3 µM (inactive)
CSc1ncc2c(C#N)c3n(C)c4ccccc4n3c(=O)c2n1 :: > 100 µM (inactive)
COc1ccc(OC)c2cc(Cc3ccc(N(C)C)cc3)c(=O)c(Cc3ccc(N(C)C)cc3)cc12 :: > 100 µM (inactive)
CN(C)Cc1cc(O)c(O)c(CN(C)C)c1 :: 35.9 µM (inactive)

Asked: Provide only the value of recorded GI50 for O=C1c2ccccc2-n2c1nc1cc(Cl)ccc1c2=O
Given back: 24.1 µM (inactive)

Asked: Provide only the value of recorded GI50 for CCC1CC2CN3CCc4c([nH]c5c(-c6c(OC)ccc7c8c([nH]c67)[C@]6(C(=O)OC)CC7CC(CC)C6N(CC8)C7)c(O)ccc45)[C@](C(=O)OC)(C2)C13 (stereo partly specified)
Given back: 14.9 µM (inactive)

Asked: Provide only the value of recorded GI50 for NCCCNCCCCNCCCN [SPERMINE TETRAHYDROCHLORIDE]
Given back: 10.6 µM (inactive)

###

# System: HCT-116
# measurement_description: NCI tumour cell line growth inhibition, 48 h
The source made the active and inactive calls. No stated cut-off is given here; in the data, active = GI50 up to about 1.1 µM and inactive = higher.
List of GI50 values.

Asked: Provide only the value of recorded GI50 for CCN(CC)C(=C(C(Cl)=C(Cl)Cl)[N+](=O)[O-])N(CC)CC
Given back: 87.7 µM (inactive)

Asked: Provide only the value of recorded GI50 for N#Cc1nc(Cc2ccccc2)oc1N
Given back: > 100 µM (inactive)

Asked: Provide only the value of recorded GI50 for NC(=O)N/N=C1/CCCC/C1=C\c1ccccc1
Given back: > 100 µM (inactive)

###

# System: SK-OV-3
# measurement_description: NCI tumour cell line growth inhibition, 48 h
Active and inactive are the calls of the source. No stated cut-off is given here; in the data, active = GI50 up to about 1.1 µM and inactive = higher.
List of GI50 values.

Asked: Provide only the value of recorded GI50 for O=[N+]([O-])c1ccc(-c2ccc(C3=Nn4c(nnc4-c4ccc(Cl)cc4)SC3)o2)cc1
Given back: > 82.4 µM (inactive)

Asked: Provide only the value of recorded GI50 for Cc1cc(N)ccc1C=O
Given back: > 100 µM (inactive)

Asked: Provide only the value of recorded GI50 for CC[C@]12C=CCN3CC[C@@]4(c5cc(N=O)c(OC)cc5N(C)[C@H]4[C@@](O)(C(=O)NC(Cc4c[nH]c5ccccc45)C(=O)OC)[C@@H]1O)[C@@H]32 (some centres undefined)
Given back: 20.2 µM (inactive)

Asked: Provide only the value of recorded GI50 for O=C(Nc1ccc(Cl)c(Cl)c1)C(=O)C(C(=O)c1ccccc1-c1ccccc1)C1OC(=O)c2ccccc21 (centres undefined)
Given back: 28.5 µM (inactive)

###

# Tested on: NCI-H226
# measurement_description: NCI tumour cell line growth inhibition, 48 h
The source made the active and inactive calls. Rule as the data show it: active = GI50 up to about 1.1 µM and inactive = higher.
Give one outcome, nothing more. List: Yes (active), No (inactive)

Some solved cases for reference:
COc1cc2c(cc1OC)C(Cc1c3ccccc3cc3ccccc13)N(C)CC2 (stereo unspecified) :: No
N#Cc1ccccc1-c1nc2c3c(c(N)ccc3n1)C(=O)c1ccccc1-2 :: No
Nc1ccccc1CCN1CCN(CCCc2ccccc2)CC1 :: No
Oc1ccc(-c2c3ccccc3c(-c3ccc(O)cc3)c3ccccc23)cc1 :: No

Asked: Tell me the assay call for CCOc1ccccc1NC(=O)CCC(=O)OC please.
Given back: No

Asked: Tell me the assay call for CC1=NN(c2cccc(Cl)c2)C2(SCC(=O)N2c2nc3ccccc3s2)/C1=C\c1ccccc1 (stereo unspecified) please.
Given back: No

Asked: Tell me the assay call for O=c1ncccn1C1C=C(CO)C(O)C1O (stereo unspecified) please.
Given back: No

Asked: Tell me the assay call for Cc1c2cc[n+](C)cc2c(C)c2c1[nH]c1ccc(OCC(F)(F)F)cc12 please.
Given back: Yes

Asked: Tell me the assay call for Nc1ncnc2sc(Nc3ccccc3)nc12 please.
Given back: No

Asked: Tell me the assay call for CC(=O)OCCn1c(Cc2ccc(Cl)cc2)nn(C(C)=O)c1=O please.
Given back: No

Asked: Tell me the assay call for Cc1c(NC(=S)Nc2ccc([N+](=O)[O-])cc2)c(=O)n(-c2ccccc2)n1C please.
Given back: No

###

# System: SW-620
# measurement_description: NCI tumour cell line growth inhibition, 48 h
The source made the active and inactive calls. No stated cut-off is given here; in the data, active = GI50 up to about 1.1 µM and inactive = higher.
List of GI50 values.

Asked: Provide only the value of recorded GI50 for O=C1[C@H](c2ccccc2)C2c3ccccc3CCN12 (stereo not given in full)
Given back: > 10 µM (inactive)

Asked: Provide only the value of recorded GI50 for CCCCCCCCCCCCCS(=O)(=O)O
Given back: > 100 µM (inactive)

Asked: Provide only the value of recorded GI50 for O=C(c1c(O)cc(O)cc1O)C1Cc2ccccc21 (stereo not given)
Given back: > 100 µM (inactive)

Asked: Provide only the value of recorded GI50 for Cc1cccc(/N=N/c2c(C)nn(C(=O)CC(=O)Nc3ccc(Cl)cc3)c2C)c1
Given back: > 100 µM (inactive)

Asked: Provide only the value of recorded GI50 for O=C1Cc2ccccc2CCc2ccccc21
Given back: > 100 µM (inactive)

Asked: Provide only the value of recorded GI50 for C/C(CCc1ccccc1)=N\NC(N)=S
Given back: > 100 µM (inactive)

Asked: Provide only the value of recorded GI50 for CCN(CC)c1ccc(C(=O)c2ccccc2C(=O)O)c(O)c1
Given back: > 100 µM (inactive)

Asked: Provide only the value of recorded GI50 for CCOC(=O)CN1CCNCCN(CC(=O)OCC)CCNCC1
Given back: > 10 µM (inactive)

Asked: Provide only the value of recorded GI50 for N#CC(/N=N/c1ccccc1C(=O)O)C(N)=O (stereo not given)
Given back: > 100 µM (inactive)

Asked: Provide only the value of recorded GI50 for CC(=O)Oc1cc2c(cc1OCC(F)(F)F)[C@H]1CC[C@]3(C)[C@@H](OC(C)=O)CC[C@H]3[C@@H]1CC2=O
Given back: 21.7 µM (inactive)

###

# System: HT-29
# measurement_description: NCI tumour cell line growth inhibition, 48 h
Calls of active or inactive are those of the source. Rule as the data show it: active = GI50 up to about 1.1 µM and inactive = higher.
Give one outcome, nothing more. List: true (1) for active, false (0) for inactive

Some solved cases for reference:
C=C1CCOC2(C(O)C(C)(O)CO)NC(=O)C1(O)NC2=O (stereo unspecified) :: false (0)
Fc1ccc(/N=C/C=C/Nc2ccc(F)cc2)cc1 :: false (0)
CN(C)CCNc1ccc2c(=O)n(CCN(C)C)c(=O)n3c4ccc(N)cc4c(=O)c1c23 :: true (1)
COc1ccc(C(=O)/C=C/c2ccc3c(c2)OCO3)c(OCc2ccccc2)c1 :: false (0)
C[N+](C)(C)CCC(=O)N1C/C(=C\c2ccccc2)C(=O)/C(=C/c2ccccc2)C1 :: false (0)
CNC(=O)OCc1nc(SSc2nc(COC(=O)NC)c(COC(=O)NC)n2C)n(C)c1COC(=O)NC :: false (0)
CC(C)/C(Cl)=N\OC(=O)Nc1ccc(F)c([N+](=O)[O-])c1 :: false (0)
Cc1cccc(/N=N/c2c(C)nn(C(=O)CC(=O)Nc3ccc(Cl)cc3)c2C)c1 :: false (0)
Cc1cc2c(cc1Cl)SC(NN(C)C)=NS2(=O)=O :: false (0)
COc1ccccc1/C=C1\CCC(CCN2CCOCC2)C1=O (stereo unspecified) :: false (0)

Asked: Tell me the assay call for N/C(=N\N=C\c1nc2ccccc2o1)c1cnccn1 please.
Given back: false (0)

Asked: Tell me the assay call for O=c1[nH][nH]c(=O)c2c1ccc1oc3ccccc3c12 please.
Given back: false (0)

Asked: Tell me the assay call for N=C(N)NCCCC(NC(=O)OCCCCCCn1ccc(N)nc1=O)C(=O)O (stereo unspecified) please.
Given back: false (0)

Asked: Tell me the assay call for O=C(Nc1ccc(Cl)c(Cl)c1)C(=O)C(C(=O)c1ccccc1-c1ccccc1)C1OC(=O)c2ccccc21 (stereo unspecified) please.
Given back: false (0)

Asked: Tell me the assay call for CNCCCCN(C)/[N+]([O-])=N\O please.
Given back: false (0)

Asked: Tell me the assay call for O=C1/C(=C/c2ccco2)N=C(c2ccccc2)N1c1cc2cc(Sc3ccccc3)ccc2[nH]1 please.
Given back: false (0)

Asked: Tell me the assay call for CC(=O)Oc1ccc2c(c1)[nH]c1c3ccc(OC(C)=O)cc3oc(=O)c21 please.
Given back: false (0)

Asked: Tell me the assay call for COC[C@@H](C[C@H]1O[C@@](O)([C@H](O)[C@@H]2C[C@H](OC)[C@@H](O)CC/C=C(C)/C=C/[C@@H](O[C@@H]3O[C@@H](C)[C@H](OC)[C@@H](O)[C@@H]3O)[C@H](C)/C=C(C)/C=C(C)/C=C(\C)C(=O)O2)[C@H](C)[C@@H](O)[C@H]1C)O[C@H]1C[C@](C)(O)[C@@H](O[C@H]2C[C@@H](OC)[C@H](O)[C@@H](C)O2)C(C)O1 (stereo partly specified) please.
Given back: false (0)
